Hey, just so you know, these numbers are from the supplement of paper PMC10567573.

Reported values of protein stability index for individual entries
# Experimental Details: protein stability index of a GFP-peptide fusion (GPS, HEK-293T) (PSI 1-6); higher = more stable;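 further: 24-mer peptide tiles fused after GFP, lentivirally expressed, FACS-sorted into six equal bins by GFP/DsRed ratio, decoded by Illumina sequencing, PSI is the read-weighted mean bin number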
# Settings: treatment: DMSO; c terminus: a fixed tail appended
In your answer, state the number alone without any accompanying words.

Chain Sequence: AEMLRFGDRMFYRDWWNSTSFSNY [SOAT2]
Measured Parameter: protein stability index
Readout Value: 2.28

Documented protein stability index of QNPGKFDELDMSPGDPKWLDVIER [TBC1D10A] : 4.27

Documented protein stability index of LIGRPGNKTQQVIHIIDFGLAKEY [CSNK1G3] : 2.38

Documented protein stability index of LECEINTYRSLLESEDCKLPSNPC [KRT33B] : 4.07

Documented protein stability index of EVGPQEINKEELEGNSMRCGRKLA [GMCL1] : 4.75

Documented protein stability index of VGRIIAPLLSGVAQEVSPCGPPSL [MFSD9] : 2.72

Documented protein stability index of QNFKNRESYPEDTVFYIPEDHKPG [DLC1] : 4.63

====

# Experimental Details: protein stability index of a GFP-peptide fusion (GPS, HEK-293T) (PSI 1-6); higher = more stable
# Settings: treatment: DMSO; c terminus: a fixed tail appended
Classification field: 1 (yes) = protein stability index at or over 3; 0 (no) = protein stability index under 3.

// below: answered sequences
Chain Sequence: LKYQAPDIDVQLSSELTDSLRTLK [NOP53]
Group: 0 (no)
//
Chain Sequence: TMLATRNFSAAKSLLKKPDGVKES [CAMK2D]
Group: 1 (yes)
//
Chain Sequence: MDGESEEEQESVDTGEEEEGGDES [EHMT1]
Group: 1 (yes)
//
Chain Sequence: CKVDCEANLTPNVGGYFVDKFVAT [P3H4]
Group: 0 (no)
//
Chain Sequence: ESQLDPSNCLGIRDFAETHNCVDL [KLHL12]
Group: 1 (yes)

Qu. Decide: is the reported value of protein stability index for TSEGTTLSGVDLELVGSGYRMSLV [FCHO1] equal to or greater than 3?
Ans. 0 (no)

Qu. Decide: is the reported value of protein stability index for VTDKTLLICKYDFIMLSCVQLQRI [TPRG1] equal to or greater than 3?
Ans. 1 (yes)

Qu. Decide: is the reported value of protein stability index for VSNTPLRTVDGSPMMKAAMYSVEI [PALM] equal to or greater than 3?
Ans. 0 (no)

Qu. Decide: is the reported value of protein stability index for TLERYMCSRFFIDFPDILEQQRKL [TENT5C] equal to or greater than 3?
Ans. 0 (no)

Qu. Decide: is the reported value of protein stability index for LEGVVSQIDAVGSKLKMLERKGWL [PKD2L1] equal to or greater than 3?
Ans. 0 (no)

====

# Experimental Details: protein stability index of a GFP-peptide fusion (GPS, HEK-293T) (PSI 1-6); higher = more stable
# Settings: treatment: DMSO; c terminus: a fixed tail appended
Reported values of protein stability index for individual entries
In your answer, state the number alone without any accompanying words.

Chain Sequence: PEQVQNEIKSMKKRMSELCIDFNK [NLN]
Measured Parameter: protein stability index
Readout Value: 4.11

Switching to the query record.
Documented protein stability index of EEPVPRERDRDPCGGSGGGGGGGG [LURAP1L] : 5.69

====

# Experimental Details: protein stability index of a GFP-peptide fusion (GPS, HEK-293T) (PSI 1-6); higher = more stable
# Settings: treatment: MLN4924 1 uM, 8 h; c terminus: a fixed tail appended
Classification field: yes (1) = protein stability index at or over 3; no (0) = protein stability index under 3.

Chain Sequence: LQQQNEDLKARIDQNTVVTRQLSE [MTUS2]
Group: yes (1)
//
Chain Sequence: LGSFESPANSETSDLTLYLVVAVA [PCDHGA10]
Group: no (0)
//
Chain Sequence: CKVDCEANLTPNVGGYFVDKFVAT [P3H4]
Group: no (0)
//
Chain Sequence: TPNSKYVKLNVGGSLHYTTLRTLT [KCTD13]
Group: no (0)
//
Chain Sequence: CMVCKKKIGNSAFARYPNGVVVHY [VPS39]
Group: no (0)

Qu. Decide: is the reported value of protein stability index for DHEHEEADLELSLPECLEYEEEFD [GNAS] equal to or greater than 3?
Ans. yes (1)

Qu. Decide: is the reported value of protein stability index for ELDLRLRLAQPSSPEVLTPQLSPG [RTN2] equal to or greater than 3?
Ans. yes (1)

Qu. Decide: is the reported value of protein stability index for ATIENNRVILEIDNARLAVDDFRL [KRT13] equal to or greater than 3?
Ans. no (0)

Qu. Decide: is the reported value of protein stability index for DIWSTACMAFELATGDYLFEPHSG [SRPK2] equal to or greater than 3?
Ans. yes (1)

====

# Experimental Details: protein stability index of a GFP-peptide fusion (GPS, HEK-293T) (PSI 1-6); higher = more stable
# Settings: treatment: DMSO; c terminus: a fixed tail appended
Classification field: criterion met = protein stability index at or over 3; criterion not met = protein stability index under 3.

// below: answered sequences
Chain Sequence: PENILLDRDGHIKLTDFGFAKKLV [PRKX]
Group: criterion not met

Chain Sequence: CVNGDVDKPSEPASEEGSESEGSE [SMG5]
Group: criterion met

Chain Sequence: DSVLERWVNDPQRMDKRTLALLVL [GOLPH3L]
Group: criterion not met

Chain Sequence: DYLCISFEYSTIKCRDLSALMHEL [BTBD10]
Group: criterion not met

Chain Sequence: PYLLGPDKNLTEREVFNEIYPVWT [SLC19A2]
Group: criterion not met

Chain Sequence: SGPAASEHSHRSHHSLASSLRSHH [DVL3]
Group: criterion met

Chain Sequence: TFIPLEPLPQIPNLPFWVKEKANS [SPATS1]
Group: criterion not met

Chain Sequence: ILELVVLEQFVAILPKELQTWVRD [ZNF24]
Group: criterion not met

Chain Sequence: QVKLYDIEQQQIRNALENIRKEMK [CRYL1]
Group: criterion met

Chain Sequence: RVNEKEIVRLRTIGELLAPAAPFD [WSB1]
Group: criterion met

Qu. Decide: is the reported value of protein stability index for TNRWSFDGIDRWIKEIDEHAPGVP [RAB40C] equal to or greater than 3?
Ans. criterion met

Qu. Decide: is the reported value of protein stability index for LHVAAHYGRDSFVRLLLEFKAEVD [ASB7] equal to or greater than 3?
Ans. criterion not met

Qu. Decide: is the reported value of protein stability index for KTTGLEEAAEAETAKDNGEAEDQE [SRPK2] equal to or greater than 3?
Ans. criterion met

Qu. Decide: is the reported value of protein stability index for RVAEVSRVRVELQEQNGRLQAELA [LRRC45] equal to or greater than 3?
Ans. criterion met

Qu. Decide: is the reported value of protein stability index for SVLLGASNADQLMENIGAIQVLPK [KCNAB2] equal to or greater than 3?
Ans. criterion met

Qu. Decide: is the reported value of protein stability index for CRLDYRRPENRSFYLALYKQMSFL [TCF25] equal to or greater than 3?
Ans. criterion not met

Qu. Decide: is the reported value of protein stability index for LAEIRSDLERQNQEYQVLLDVRAR [KRT33B] equal to or greater than 3?
Ans. criterion met

Qu. Decide: is the reported value of protein stability index for ERRHREEKERRKKQQWEIMHKHNE [RSPH3] equal to or greater than 3?
Ans. criterion met

Qu. Decide: is the reported value of protein stability index for LEGVIDRYQQSKAAALKCQLCEKA [TRIM9] equal to or greater than 3?
Ans. criterion met

Qu. Decide: is the reported value of protein stability index for RAVLGGLSQTDPRAGGGGGGDYGL [PPTC7] equal to or greater than 3?
Ans. criterion met

Qu. Decide: is the reported value of protein stability index for ENLLLASKLKGAAVKLADFGLAIE [CAMK2A] equal to or greater than 3?
Ans. criterion not met

Qu. Decide: is the reported value of protein stability index for RDRDGRITVAELREAVPALLGEPL [CABP4] equal to or greater than 3?
Ans. criterion met

Qu. Decide: is the reported value of protein stability index for AEKIEYNESMKAYHNSPAYLAYIN [SMARCE1] equal to or greater than 3?
Ans. criterion met

Qu. Decide: is the reported value of protein stability index for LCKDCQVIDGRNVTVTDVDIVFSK [TPPP] equal to or greater than 3?
Ans. criterion not met

Qu. Decide: is the reported value of protein stability index for KLKDLSTVTSLQVPVLKPMDLMVE [PPP2R2C] equal to or greater than 3?
Ans. criterion met

====

# Experimental Details: protein stability index of a GFP-peptide fusion (GPS, HEK-293T) (PSI 1-6); higher = more stable
# Settings: treatment: MLN4924 1 uM, 8 h; c terminus: a fixed tail appended
Reported values of protein stability index for individual entries
In your answer, state the number alone without any accompanying words.

Chain Sequence: MVEADHPGKLFIGGLNRETNEKML [RBMY1A1]
Measured Parameter: protein stability index
Readout Value: 3.92
--
Chain Sequence: EEAGSQENHPQESKGQPRSQEESE [CHGB]
Measured Parameter: protein stability index
Readout Value: 5.64
--
Chain Sequence: EWIKLDYHRRHNPKTNEDFEFLYN [IQUB]
Measured Parameter: protein stability index
Readout Value: 2.24
--
Chain Sequence: DPERRPSAMALVKHSVLLSASRKS [WEE1]
Measured Parameter: protein stability index
Readout Value: 4.05
--
Chain Sequence: VYHIECFRCSVCSRQLLPGDEFSL [ISL2]
Measured Parameter: protein stability index
Readout Value: 2.4

Documented protein stability index of SQIHNNGQSDFRPKNGRHAWIWHD [LOXL2] : 3.22

Documented protein stability index of QPVVDTFDIRILMAKSVKYTVNFL [CARM1] : 2.62

Documented protein stability index of GHEKTAKSKTRSLLKRMESLKLKS [DLC1] : 3.89
